Test system: Leishmania donovani
Experimental details: Intramacrophage Leishmania donovani assay (Assay 1), average number of amastigotes per cell (potency readout)
Format: cell-based
Assay setup: THP-1, 96 h, amastigotes in PMA-differentiated THP-1 macrophages, 96 h incubation, read-out: pEC50 value against Leishmania donovani (converted)
What EC50 was measured for each of the following?

Record excerpt, results attached:
Molecule	Assay system	EC50
O=C(Nc1ccc(F)c(-c2ccn3c(N4CCCOCC4)cnc3n2)c1)N1CCCC1 [Example 22]	Leishmania donovani	0.251 to 10 µM
O=C(Nc1ccc(F)c(-c2ccn3c(-c4cnccn4)cnc3n2)c1)N1CCCC1 [Example 27]	Leishmania donovani	0.251 to 10 µM
CC(C)(C)OC(=O)N1CCOCC1c1cnc2nc(-c3cc(NC(=O)N4CCCC4)ccc3F)ccn12 (stereo not drawn) [Example 44]	Leishmania donovani	0.251 to 10 µM
CCc1cc(-c2cc(NC(=O)N3CCCC3)ccc2F)nc2ncc(N3CCOCC3)n12 [Example 13]	Leishmania donovani	0.251 to 10 µM
O=C(Nc1cccc(-c2cnn3c(-c4ccccc4)cnc3n2)c1)N1CCCC1 [Example 10]	Leishmania donovani	0.251 to 10 µM

Would you be so kind as to report EC50 for each listed record?
1. Cc1cc(F)c(-c2ccn3c(N4CCOCC4)cnc3n2)cc1NC(=O)N1CCCC1
2. CC1COCCN1c1cnc2nc(-c3cc(NC(=O)N4CCCC4)ccc3F)ccn12 (stereo not drawn) [Example 31]
3. C[C@H]1CN(c2cnc3nc(-c4cc(NC(=O)N5CCCC5)ccc4F)ccn23)CCO1 [Example 40]

Reply:
1. > 50.1 µM
2. 0.251 to 10 µM
3. 0.251 to 10 µM

Would you be so kind as to report EC50 for each listed record?
1. O=C(Nc1ccc(F)c(-c2ccn3c(-c4ccccc4)cnc3n2)c1)N1CCCC1 [Example 3]
2. Cc1cn2c(N3CCOCC3)cnc2nc1-c1cccc(NC(=O)N2CCCC2)c1 [Example 14]
3. O=C(Nc1ccc(F)c(-c2cnn3c(-c4ccccc4)cnc3n2)c1)N1CCCC1 [Example 7]
4. O=C(Nc1ccc(F)c(-c2cnn3ccnc3n2)c1)N1CCCC1 [Example 11]
5. O=C(Nc1ccc(F)c(-c2ccn3c(N4CCOCC4)cnc3n2)c1)N1CC(F)(F)C1 [Example 24]
6. O=C(Nc1ccc(F)c(-c2ccn3c(N4CCNCC4)cnc3n2)c1)N1CCCC1 [Example 32]

Reply:
1: 0.251 to 10 µM; 2: > 50.1 µM; 3: 0.251 to 10 µM; 4: 12.6 to 20 µM; 5: 0.251 to 10 µM; 6: > 50.1 µM

Would you be so kind as to report EC50 for each listed record?
1. C[C@@H]1CCN(C(=O)Nc2ccc(F)c(-c3ccn4c(N5CCOCC5)cnc4n3)c2)C1 [Example 34]
2. CC1(C)COCCN1c1cnc2nc(-c3cc(NC(=O)N4CCCC4)ccc3F)ccn12 [Example 42]
3. O=C(Nc1ccc(F)c(-c2ccn3c(C4COCCN4)cnc3n2)c1)N1CCCC1 (stereo not drawn) [Example 38]
4. CC1CN(c2cnc3nc(-c4cc(NC(=O)N5CCCC5)ccc4F)ccn23)CCO1 (stereo not drawn) [Example 29]

Reply:
1. 0.251 to 10 µM
2. 0.251 to 10 µM
3. 12.6 to 20 µM
4. 0.251 to 10 µM

====

What EC50 was measured for each of the following?
Test system: Leishmania donovani
Experimental details: Intramacrophage Leishmania donovani assay (Assay 1), average number of amastigotes per cell (potency readout)
Assay type: cell-based
Assay setup: THP-1, 96 h, amastigotes in PMA-differentiated THP-1 macrophages, 96 h incubation, read-out: pEC50 value against Leishmania donovani (converted)

Record excerpt, results attached:
Compound	Measurement
O=C(Nc1ccc(F)c(-c2ccn3c(-c4ccccn4)cnc3n2)c1)N1CCCC1	0.251 to 10 µM
CC(C)(C)OC(=O)N1CCN(c2cnc3nc(-c4cc(NC(=O)N5CCCC5)ccc4F)ccn23)CC1	0.251 to 10 µM
CC(C)Cc1cnc2nc(-c3cc(NC(=O)N4CCCC4)ccc3F)ccn12	0.251 to 10 µM
O=C(Nc1ccc(F)c(-c2ccn3c(C4CCOCC4)cnc3n2)c1)N1CCCC1	0.251 to 10 µM

Would you be so kind as to report EC50 for each listed record?
1. C[C@H]1CCCN1C(=O)Nc1ccc(F)c(-c2ccn3c(N4CCOCC4)cnc3n2)c1 [Example 33a]
2. O=C(Nc1cccc(-c2cnn3c(N4CCOCC4)cnc3n2)c1)N1CCCC1
3. O=C(Nc1ccc(F)c(-c2cnn3c(Br)cnc3n2)c1)N1CCCC1
4. O=C(Nc1ccc(F)c(-c2ccn3c(-c4ccc(CN5CCOCC5)cc4)cnc3n2)c1)N1CCCC1
5. O=C(Nc1ccc(F)c(-c2ccn3c(CN4CCOCC4)cnc3n2)c1)N1CCCC1
6. N#Cc1ccc(NC(=O)N2CCCC2)cc1-c1ccn2c(N3CCOCC3)cnc2n1
7. COC1CCN(c2cnc3nc(-c4cc(NC(=O)N5CCCC5)ccc4F)ccn23)CC1

Reply:
["> 50.1 µM", "0.251 to 10 µM", "0.251 to 10 µM", "0.251 to 10 µM", "12.6 to 20 µM", "> 50.1 µM", "0.251 to 10 µM"]

Would you be so kind as to report EC50 for each listed record?
1. CC1(C)CN(C(=O)Nc2ccc(F)c(-c3ccn4c(N5CCOCC5)cnc4n3)c2)C1
2. O=C(Nc1ccc(F)c(-c2cnn3c(N4CCOCC4)cnc3n2)c1)N1CCCC1

Reply:
["> 50.1 µM", "0.251 to 10 µM"]

====

Test system: Leishmania donovani
Experimental details: Intramacrophage Leishmania donovani assay (Assay 1), average number of amastigotes per cell (potency readout)
Type: cell-based
Assay setup: THP-1, 96 h, amastigotes in PMA-differentiated THP-1 macrophages, 96 h incubation, read-out: pEC50 value against Leishmania donovani (converted)
Protocol: Assay 1. Intramacrophage Leishmania donovani Assay The intramacrophage Leishmania assay was performed using a modified version of the method described in De Rycker et al. (Antimicrob Agents Chemother. 2013 July; 57(7):2913-22. Comparison of a high-throughput high-content intracellular Leishmania donovani assay with an axenic amastigote assay. De Rycker M, Hallyburton I, Thomas J, Campbell L, Wyllie S, Joshi D, Cameron S, Gilbert I H, Wyatt P G, Frearson J A, Fairlamb A H, Gray D W.). […]
Measure name: EC50

Record excerpt, results attached:
Compound	EC50
CC(=O)N1CCN(c2cnc3nc(-c4cc(NC(=O)N5CCCC5)ccc4F)ccn23)CC1	> 50.1 µM
CC1(C)CCN(C(=O)Nc2ccc(F)c(-c3ccn4c(N5CCOCC5)cnc4n3)c2)C1	> 50.1 µM
O=C(Nc1cc(-c2ccn3c(N4CCOCC4)cnc3n2)c(F)cc1F)N1CCCC1	> 50.1 µM

Would you be so kind as to report EC50 for each listed record?
1. O=C(Nc1cccc(-c2ccn3c(N4CCOCC4)cnc3n2)c1)N1CCCC1
2. O=C(Nc1cccc(-c2ccn3c(-c4ccccc4)cnc3n2)c1)N1CCCC1
3. Cc1cn2c(N3CCOCC3)cnc2nc1-c1cc(NC(=O)N2CCCC2)ccc1F
4. Cc1cc(-c2cc(NC(=O)N3CCCC3)ccc2F)nc2ncc(N3CCOCC3)n12

Reply:
1: 0.251 to 10 µM; 2: 0.251 to 10 µM; 3: 12.6 to 20 µM; 4: 0.251 to 10 µM

====

Test system: Leishmania donovani
Experimental details: Intramacrophage Leishmania donovani assay (Assay 1), average number of amastigotes per cell (potency readout)
Assay type: cell-based
Assay setup: THP-1, 96 h, amastigotes in PMA-differentiated THP-1 macrophages, 96 h incubation, read-out: pEC50 value against Leishmania donovani (converted)
Experimental: Assay 1. Intramacrophage Leishmania donovani Assay The intramacrophage Leishmania assay was performed using a modified version of the method described in De Rycker et al. (Antimicrob Agents Chemother. 2013 July; 57(7):2913-22. Comparison of a high-throughput high-content intracellular Leishmania donovani assay with an axenic amastigote assay. De Rycker M, Hallyburton I, Thomas J, Campbell L, Wyllie S, Joshi D, Cameron S, Gilbert I H, Wyatt P G, Frearson J A, Fairlamb A H, Gray D W.). […]
Measure name: EC50

Record excerpt, results attached:
Compound	EC50
CC1CN(C(=O)Nc2ccc(F)c(-c3ccn4c(N5CCOCC5)cnc4n3)c2)C1	12.6 to 20 µM
CC1(C)CCCN1C(=O)Nc1ccc(F)c(-c2ccn3c(N4CCOCC4)cnc3n2)c1	> 50.1 µM
C[C@H]1CCN(C(=O)Nc2ccc(F)c(-c3ccn4c(N5CCOCC5)cnc4n3)c2)C1 [Example 34a]	0.251 to 10 µM
C[C@@H]1CN(c2cnc3nc(-c4cc(NC(=O)N5CCCC5)ccc4F)ccn23)C[C@H](C)O1	0.251 to 10 µM
O=C(Nc1ccc(F)c(-c2cc(C(=O)N3CCCC3)n3ccnc3n2)c1)N1CCCC1	> 50.1 µM
C[C@@H]1CCCN1C(=O)Nc1ccc(F)c(-c2ccn3c(N4CCOCC4)cnc3n2)c1	0.251 to 10 µM
O=C(Nc1ccc(F)c(-c2ccn3c(N4CCCCC4)cnc3n2)c1)N1CCCC1	0.251 to 10 µM
CC(C)c1cnc2nc(-c3cc(NC(=O)N4CCCC4)ccc3F)ccn12	0.251 to 10 µM

Would you be so kind as to report EC50 for each listed record?
1. CN1CCN(c2cnc3nc(-c4cc(NC(=O)N5CCCC5)ccc4F)ccn23)CC1
2. O=C(Nc1ccc(F)c(-c2ccn3ccnc3n2)c1)N1CCCC1
3. CN1CCOCC1c1cnc2nc(-c3cc(NC(=O)N4CCCC4)ccc3F)ccn12 (stereo not shown)
4. O=C(Nc1ccc(F)c(-c2ccn3c(N4CCOCC4)cnc3n2)c1)N1CC[C@H](F)C1 [Example 23a]

Reply:
1: 12.6 to 20 µM; 2: 12.6 to 20 µM; 3: 0.251 to 10 µM; 4: > 50.1 µM

Would you be so kind as to report EC50 for each listed record?
1. CC1(C)CN(c2cnc3nc(-c4cc(NC(=O)N5CCCC5)ccc4F)ccn23)CCO1
2. O=C1CN(c2cnc3nc(-c4cc(NC(=O)N5CCCC5)ccc4F)ccn23)CCN1
3. Cc1nc(C)c(C(=O)Nc2ccc(F)c(-c3ccn4c(N5CCOCC5)cnc4n3)c2)o1
4. O=C(Nc1ccc(F)c(-c2ccn3c(N4CCOCC4)cnc3n2)c1)N1CCC(F)(F)C1

Reply:
1: 0.251 to 10 µM; 2: > 50.1 µM; 3: 0.251 to 10 µM; 4: 12.6 to 20 µM

These measurements were taken from patent US10479792B2.
